Target Or Test System: T1, orthogonal hCD122 receptor (hoRb), hCD122 with H133D and Y134F (human, UniProt P14784 27-550); note: reference of the scale not given here
T1 sequence: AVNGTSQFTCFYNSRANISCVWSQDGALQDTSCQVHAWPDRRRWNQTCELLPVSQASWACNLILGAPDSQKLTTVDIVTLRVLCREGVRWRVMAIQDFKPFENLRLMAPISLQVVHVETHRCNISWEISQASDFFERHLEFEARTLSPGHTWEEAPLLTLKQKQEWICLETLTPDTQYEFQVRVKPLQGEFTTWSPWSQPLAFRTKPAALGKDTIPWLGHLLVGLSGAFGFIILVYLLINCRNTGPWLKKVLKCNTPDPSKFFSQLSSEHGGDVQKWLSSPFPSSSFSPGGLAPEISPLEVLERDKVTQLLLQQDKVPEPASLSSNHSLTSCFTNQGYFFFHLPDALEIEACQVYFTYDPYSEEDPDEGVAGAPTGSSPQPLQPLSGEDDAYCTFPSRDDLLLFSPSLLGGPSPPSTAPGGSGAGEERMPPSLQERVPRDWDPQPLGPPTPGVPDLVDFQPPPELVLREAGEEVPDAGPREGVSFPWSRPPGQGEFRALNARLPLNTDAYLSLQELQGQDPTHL
Assay Notes: cell-based or functional assay
Rule: measured Relative Proliferation Fold Change NKL 1:10 below 3 fold gets Fulfilled; anything equal to or greater than 3 fold gets Not fulfilled.

{"Binder": "L18Q, SQVLKA (ligand) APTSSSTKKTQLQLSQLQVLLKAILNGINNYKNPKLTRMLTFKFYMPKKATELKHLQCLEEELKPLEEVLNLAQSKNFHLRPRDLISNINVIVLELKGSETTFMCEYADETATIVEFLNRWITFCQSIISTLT", "Answer Label": "Fulfilled"}
{"Binder": "T3C, SQVLKA (ligand) APCSSSTKKTQLQLSQLLVLLKAILNGINNYKNPKLTRMLTFKFYMPKKATELKHLQCLEEELKPLEEVLNLAQSKNFHLRPRDLISNINVIVLELKGSETTFMCEYADETATIVEFLNRWITFCQSIISTLT", "Answer Label": "Not fulfilled"}
{"Binder": "ΔP2, SQVLKA (ligand) ATSSSTKKTQLQLSQLLVLLKAILNGINNYKNPKLTRMLTFKFYMPKKATELKHLQCLEEELKPLEEVLNLAQSKNFHLRPRDLISNINVIVLELKGSETTFMCEYADETATIVEFLNRWITFCQSIISTLT", "Answer Label": "Not fulfilled"}
{"Binder": "SQVLKS (ligand) APTSSSTKKTQLQLSQLLVLLKSILNGINNYKNPKLTRMLTFKFYMPKKATELKHLQCLEEELKPLEEVLNLAQSKNFHLRPRDLISNINVIVLELKGSETTFMCEYADETATIVEFLNRWITFCQSIISTLT", "Answer Label": "Not fulfilled"}
{"Binder": "R38W, SQVLKA (ligand) APTSSSTKKTQLQLSQLLVLLKAILNGINNYKNPKLTWMLTFKFYMPKKATELKHLQCLEEELKPLEEVLNLAQSKNFHLRPRDLISNINVIVLELKGSETTFMCEYADETATIVEFLNRWITFCQSIISTLT", "Answer Label": "Fulfilled"}
{"Binder": "L14M, SQVLKA (ligand) APTSSSTKKTQLQMSQLLVLLKAILNGINNYKNPKLTRMLTFKFYMPKKATELKHLQCLEEELKPLEEVLNLAQSKNFHLRPRDLISNINVIVLELKGSETTFMCEYADETATIVEFLNRWITFCQSIISTLT", "Answer Label": "Not fulfilled"}

Moving on to another binder below.
[in] Does the reported Relative Proliferation Fold Change NKL 1:10 of SQVLSA (ligand) APTSSSTKKTQLQLSQLLVLLSAILNGINNYKNPKLTRMLTFKFYMPKKATELKHLQCLEEELKPLEEVLNLAQSKNFHLRPRDLISNINVIVLELKGSETTFMCEYADETATIVEFLNRWITFCQSIISTLT stay below 3 fold?
[out] Fulfilled
